- TESTED_ON: delta opioid receptor (Mus musculus)
- Construct: NG108-15 cell membranes were purchased from Applied Cell Sciences (Rockville, Md.); host or cells: NG108-15 cell membranes
- METHOD_DESCRIPTION: [35S]GTPγS binding assay in NG108-15 cell membranes (delta opioid functional assay), 200 nM screen
- Type: biochemical
- MEASUREMENT_SETUP: NG108-15 cell membranes; averages if tested more than once; read-out: GTPγS δ-opioid receptor EC50
READOUT_KIND: pEC50
# log scale: pEC50 equals minus log10 of the concentration in mol/L

Sample answers from the record:
>>> print(df.to_string())
                                   compound  readout_kind  numeric_value
0  COc1ccc(Oc2nc(-c3cncc(SC)c3)ncc2N2CC[C@@H](N)C2)cc1         pEC50           7.00
1  COc1ccc(Oc2nc(-c3cccnc3)ncc2N[C@@H]2CCNC2)cc1         pEC50           6.67
2  O=C(Nc1ccc(Oc2nc(-c3cccnc3)ncc2NC[C@@H]2CCCN2)cc1)OCc1ccccc1         pEC50           6.59
3  COc1ccc(Oc2nc(-c3cncc(C#N)c3)ncc2NC[C@H]2COCCN2)cc1         pEC50           6.74
4  COc1ccc(Oc2nc(-c3ccncc3)ncc2NC[C@@H]2CCCN2)cc1         pEC50           6.36
5  COc1ccc(Oc2nc(-c3cccnc3)ncc2NC[C@@H]2CCCCN2)cc1         pEC50           6.32
6  N#Cc1cncc(-c2ncc(NC[C@@H]3CCCN3)c(Oc3ccc(C(F)(F)F)cc3)n2)c1         pEC50           6.34
7  COc1ccc(Oc2nc(-c3cncnc3)ncc2NCC2CNCCO2)cc1 (stereo not drawn)         pEC50           5.96

Task item: Identify measured pEC50 corresponding to `COc1ccc(Oc2nc(-c3cccnc3)ncc2N2CCN(C)CC2)cc1`
Reply: 6.57

Task item: In one line, give reported pEC50 of the entry `CCOc1ccc(Oc2nc(-c3cncnc3)ncc2NC[C@@H]2CCCN2)cc1` .
Reply: 6.84

Task item: Provide one value: measured pEC50 of `Oc1ccc(Oc2nc(-c3cncnc3)ncc2NC[C@@H]2CCCN2)cc1`
Reply: 6.75

Task item: Write down pEC50 measured for item `Cc1ccc(Oc2nc(-c3cccnc3)ncc2NC[C@@H]2CCCN2)cc1F`
Reply: 6.80

---

- TESTED_ON: delta opioid receptor (Mus musculus, UniProt P32300)
- Construct: NG108-15 cell membranes were purchased from Applied Cell Sciences (Rockville, Md.); host or cells: NG108-15 cell membranes
- Sequence (P32300 whole entry): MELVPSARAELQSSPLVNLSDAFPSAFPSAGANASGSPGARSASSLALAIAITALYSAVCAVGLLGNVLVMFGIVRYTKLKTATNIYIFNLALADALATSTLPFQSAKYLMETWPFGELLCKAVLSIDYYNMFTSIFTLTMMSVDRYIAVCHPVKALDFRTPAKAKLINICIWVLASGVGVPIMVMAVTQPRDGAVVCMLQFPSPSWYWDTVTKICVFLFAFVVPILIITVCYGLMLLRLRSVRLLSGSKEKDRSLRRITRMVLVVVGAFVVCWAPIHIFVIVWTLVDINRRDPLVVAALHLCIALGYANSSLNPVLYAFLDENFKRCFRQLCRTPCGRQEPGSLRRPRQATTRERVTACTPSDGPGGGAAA
- METHOD_DESCRIPTION: [35S]GTPγS binding assay in NG108-15 cell membranes (delta opioid functional assay), 200 nM screen
- Type: biochemical
- MEASUREMENT_SETUP: GTPγS δ-opioid receptor EC50 (μM), NG108-15 cell membranes; averages if tested more than once
READOUT_KIND: EC50 (µM)
Give the number; µM is assumed, so skip it.

Recorded results for 4 compounds are shown here.
>>> df
                                   compound  readout_kind  numeric_value
0  COc1ccc(Oc2nc(-c3cncc(C#N)c3)ncc2N2CCNCC2)cc1 [Cpd 325]          EC50          0.011
1  COc1ccc(Oc2nc(-c3cncc(OC)c3)ncc2N2CCNCC2)cc1 [Cpd 342]          EC50         0.0439
2  COc1ccc(Oc2nc(-c3cnc(C#N)nc3)ncc2NC[C@@H]2CCCN2)cc1 [Cpd 121]          EC50          0.019
3  COc1ccc(Oc2nc(-c3cncc(SC)c3)ncc2N2CCCNCC2)cc1 [Cpd 347]          EC50          0.069

Then this compound:
Task item: Provide measured EC50 value, entry: COc1ccc(Oc2nc(-c3cccnc3)ncc2N2C[C@@H](C)N[C@@H](C)C2)cc1 [Cpd 359]
Reply: 0.034

---

Measured pKi, listed per entry.
- TESTED_ON: delta opioid receptor (Rattus norvegicus, UniProt P33533)
- Construct: the forebrains were homogenized in Tris buffer in a Teflon®-glass homogenizer; from tissue; host or cells: forebrain of male Wistar rats, particulate (membrane) preparation
- Sequence (P33533 whole entry): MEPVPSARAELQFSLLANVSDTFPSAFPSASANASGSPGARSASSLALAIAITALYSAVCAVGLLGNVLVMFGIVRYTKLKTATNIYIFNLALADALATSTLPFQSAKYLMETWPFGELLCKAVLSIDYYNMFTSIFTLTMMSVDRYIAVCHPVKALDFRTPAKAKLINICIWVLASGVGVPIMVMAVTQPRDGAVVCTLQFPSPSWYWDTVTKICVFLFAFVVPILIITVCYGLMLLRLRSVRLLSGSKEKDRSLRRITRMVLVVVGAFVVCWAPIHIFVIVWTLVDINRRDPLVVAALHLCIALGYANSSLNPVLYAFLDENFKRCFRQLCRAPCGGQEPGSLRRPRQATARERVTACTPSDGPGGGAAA
- METHOD_DESCRIPTION: Rat brain delta opioid receptor binding assay
- MEASUREMENT_SETUP: rat forebrain, [3H]DPDPE ligand; read-out: δ-binding (DPDPE ligand) Ki
// scale note: pKi = -log10(conc_M); give the bare number

# annotated cases, reported pKi shown
>>> df
                    structure_smiles_string  numeric_value
0  COc1ccc(Oc2nc(-c3ccc(OC)cc3)ncc2NC[C@@H]2CCCN2)cc1           6.44
1  COc1ccc(Oc2nc(-c3ccccc3OC)ncc2NC[C@@H]2CCCN2)cc1           5.65

Kindly consider the entry below.
Task item: Look up and report measured pKi for this entry: `COc1ccc(Oc2nc(-c3cccc(OC)c3)ncc2NC[C@@H]2CCCN2)cc1`
Reply: 6.85

---

- TESTED_ON: delta opioid receptor (Mus musculus, UniProt P32300)
- Construct: NG108-15 cell membranes were purchased from Applied Cell Sciences (Rockville, Md.); host or cells: NG108-15 cell membranes
- METHOD_DESCRIPTION: [35S]GTPγS binding assay in NG108-15 cell membranes (delta opioid functional assay), 200 nM screen
- Type: biochemical
- MEASUREMENT_SETUP: 200 nM test compound; relative to calculated max of SNC80 dose response curve; NG108-15 cell membranes; averages if tested more than once
We label by threshold. Values of GTPγS δ-RelEfficacy @200 nM strictly beneath 0.6 are 1. Values of 0.6 and up are -1.

                    structure_smiles_string                                 tested_on  label_class
0  COc1ccc(Oc2nc(-c3cncc(Cl)c3)ncc2NC[C@@H]2CCCN2)cc1C  delta opioid receptor (Mus musculus, UniProt P32300)           -1
1  COCc1ccc(Oc2nc(-c3cncnc3)ncc2NC[C@@H]2CCCN2)cc1  delta opioid receptor (Mus musculus, UniProt P32300)            1
2  O=C(Nc1ccc(Oc2nc(-c3cccnc3)ncc2NC[C@@H]2CCCN2)cc1)OCc1ccccc1  delta opioid receptor (Mus musculus, UniProt P32300)            1
3  CCc1nc(C)c(CNc2cnc(-c3cncc(C#N)c3)nc2Oc2ccc(OC)cc2)[nH]1  delta opioid receptor (Mus musculus, UniProt P32300)           -1
4  Cc1ccccc1Oc1nc(-c2cncc(Cl)c2)ncc1NC[C@@H]1CCCN1  delta opioid receptor (Mus musculus, UniProt P32300)            1
5  COc1ccc(Oc2nc(-c3cncc(C#N)c3)ncc2NC2CCNCC2)cc1  delta opioid receptor (Mus musculus, UniProt P32300)            1

Task item: GTPγS δ-RelEfficacy @200 nM strictly < 0.6 for this molecule? `COc1ccc(Oc2nc(-c3cccnc3)ncc2NC[C@@H]2CCCCN2)cc1`
Reply: 1

Task item: Check if GTPγS δ-RelEfficacy @200 nM falls below 0.6 for `O=C(c1cccc(Oc2nc(-c3cncc(F)c3)ncc2NC[C@@H]2CCCN2)c1)N1CCCCC1` .
Reply: 1

---

- TESTED_ON: delta opioid receptor (Mus musculus, UniProt P32300)
- Construct: NG108-15 cell membranes were purchased from Applied Cell Sciences (Rockville, Md.); host or cells: NG108-15 cell membranes
- METHOD_DESCRIPTION: [35S]GTPγS binding assay in NG108-15 cell membranes (delta opioid functional assay), 200 nM screen
- Format: biochemical
- MEASUREMENT_SETUP: 200 nM test compound; relative to calculated max of SNC80 dose response curve; NG108-15 cell membranes; averages if tested more than once
Reported GTPγS δ-RelEfficacy @200 nM values for the following compounds.
// no unit, no text: just the number

>>> print(df.to_string())
                                   compound  numeric_value
0  CCN(CC)C(=O)c1cccc(Oc2nc(-c3cccnc3)ncc2NC[C@@H]2CCCN2)c1          0.213

Task item: Give recorded GTPγS δ-RelEfficacy @200 nM. `N#Cc1cncc(-c2ncc(NC[C@@H]3CCCN3)c(Oc3ccc(C(F)(F)F)cc3)n2)c1`
Reply: 0.457

Task item: Give a short answer stating reported GTPγS δ-RelEfficacy @200 nM for `Cc1cccc(Oc2nc(-c3cncc(F)c3)ncc2NC[C@@H]2CCCN2)c1` .
Reply: 0.122

Task item: Using known records, supply GTPγS δ-RelEfficacy @200 nM for `Cc1ccc(Oc2nc(-c3cncc(Cl)c3)ncc2NC[C@@H]2CCCN2)c(F)c1F`
Reply: 0.222

Task item: Input COc1ccc(Oc2nc(-c3cncc(C#N)c3)ncc2NC2CC(N)C2)cc1 (stereo not drawn) , output reported GTPγS δ-RelEfficacy @200 nM.
Reply: 0.622

Task item: Report GTPγS δ-RelEfficacy @200 nM for `Fc1cncc(-c2ncc(NC[C@@H]3CCCN3)c(Oc3ccc(C(F)(F)F)cc3)n2)c1`
Reply: 0.324

Task item: State its GTPγS δ-RelEfficacy @200 nM for this compound: `COc1cncc(-c2ncc(NC[C@@H]3CCCN3)c(Oc3cccc(O)c3)n2)c1`
Reply: 1.000

Task item: Return value of GTPγS δ-RelEfficacy @200 nM for input `O=C(c1cccc(Oc2nc(-c3cccnc3)ncc2NC[C@@H]2CCCN2)c1)N1CCCCC1` , no commentary.
Reply: 0.328

Task item: Identify measured GTPγS δ-RelEfficacy @200 nM corresponding to `CS(=O)(=O)Nc1ccc(Oc2nc(-c3cccnc3)ncc2NC[C@@H]2CCCN2)cc1`
Reply: 0.115

Attribution: patent US8513271B2
